Biological target: T1, recombinant human CD3ε-CD3δ heterodimeric protein (CD3εδ) (Homo sapiens)
T1 construct: human CD3ε of the recombinant CD3εδ heterodimer; human CD3δ of the recombinant CD3εδ heterodimer; source: in-house prepared
T1 chain 1: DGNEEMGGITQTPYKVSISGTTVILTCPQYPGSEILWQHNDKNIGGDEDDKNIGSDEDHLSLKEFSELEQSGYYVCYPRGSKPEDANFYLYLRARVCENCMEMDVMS
T1 chain 2: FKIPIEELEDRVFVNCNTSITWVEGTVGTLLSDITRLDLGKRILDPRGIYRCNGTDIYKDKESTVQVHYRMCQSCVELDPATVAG
Assay: SPR; Biacore T200, 37 °C, pH 7.4, PB-P+; antibody captured (630 RU) by anti-mouse IgG (Fc) antibody on a CM4 chip; human CD3εδ as analyte, 1.2-4800 nmol/L; 1:1 binding model (mUCHT1, mSP34)
Details: both partners purified
REPORTED_PROPERTY: pKd
Quick note: pKd values are minus log10 of concentrations in mol/L.

# get_value(readout='pKd', item= mUCHT1 mIgG2a V1+C19, homodimeric antibody with FAST-Ig V1+C19 mutations (antibody, V domains shown, VH of mUCHT1; mouse IgG2a (mIgG2a) heavy chain constant region; numbers count on: Eu numbering; VL of mUCHT1; mouse kappa light chain constant region (CL); numbers count on: Kabat numbering; Whole IgG of one HC and one LC; also called anti-CD3; H2L2H2L2; source: Expi293F, transiently expressed, purified (Ab-Capcher MAG2, MonoSpin ProA or MonoSpin ProG); copies: 2 + 2) VH: EVQLQQSGPELVKPGASMKISCKASGYSFTGYTMNWVKESHGKNLEWMGLINPYKGVSTYNQKFKDKATLTVDKSSSTAYMELLSLTSEDSAVYYCARSGYYGDSDWYFDVWGQGTTLTVFS VL: DIQMTQTTSSLSASLGDRVTISCRASQDIRNYLNWYQKKPDGTVKLLIYYTSRLHSGVPSKFSGSGSGTDYSLTISNLEQEDIATYFCQQGNTLPWTFAGGTKLEIK )
8.88

# get_value(readout='pKd', item= mSP34 mIgG2a V1+C19, homodimeric antibody with FAST-Ig V1+C19 mutations (antibody, V domains shown, VH of mSP34; mouse IgG2a (mIgG2a) heavy chain constant region; numbers count on: Eu numbering; VL (lambda) of mSP34; mouse lambda light chain constant region (CL); numbers count on: Kabat numbering; Whole IgG of one HC and one LC; also called anti-CD3; H2L2H2L2; source: Expi293F, transiently expressed, purified (Ab-Capcher MAG2, MonoSpin ProA or MonoSpin ProG); copies: 2 + 2) VH: EVQLVESGGGLVQPKGSLKLSCAASGFTFNTYAMNWVREAPGKGLEWVARIRSKYNNYATYYADSVKDRFTISRDDSQSILYLQMNNLKTEDTAMYYCVRHGNFGNSYVSWFAYWGQGTLVTVSA VL: QAVVTQESALTTSPGETVTLTCRSSTGAVTTSNYANWVQKKPDHLFTGLIGGTNKRAPGVPARFSGSLIGDKAALTITGAQTEDEAIYFCALWYSNLWVFGGGTKLTVL )
7.59

# get_value(readout='pKd', item= mSP34 mIgG1 V1+C19, homodimeric antibody with FAST-Ig V1+C19 mutations (antibody, V domains shown, VH of mSP34; mouse IgG1 (mIgG1) heavy chain constant region; numbers count on: Eu numbering; VL (lambda) of mSP34; mouse lambda light chain constant region (CL); numbers count on: Kabat numbering; Whole IgG of one HC and one LC; also called anti-CD3; H2L2H2L2; source: Expi293F, transiently expressed, purified (Ab-Capcher MAG2 or MonoSpin ProG); copies: 2 + 2) VH: EVQLVESGGGLVQPKGSLKLSCAASGFTFNTYAMNWVREAPGKGLEWVARIRSKYNNYATYYADSVKDRFTISRDDSQSILYLQMNNLKTEDTAMYYCVRHGNFGNSYVSWFAYWGQGTLVTVSA VL: QAVVTQESALTTSPGETVTLTCRSSTGAVTTSNYANWVQKKPDHLFTGLIGGTNKRAPGVPARFSGSLIGDKAALTITGAQTEDEAIYFCALWYSNLWVFGGGTKLTVL )
7.24
